Catalogue of molecules with associated pKi
# tested-on: UniProt:P34972
# Sequence (P34972 whole entry): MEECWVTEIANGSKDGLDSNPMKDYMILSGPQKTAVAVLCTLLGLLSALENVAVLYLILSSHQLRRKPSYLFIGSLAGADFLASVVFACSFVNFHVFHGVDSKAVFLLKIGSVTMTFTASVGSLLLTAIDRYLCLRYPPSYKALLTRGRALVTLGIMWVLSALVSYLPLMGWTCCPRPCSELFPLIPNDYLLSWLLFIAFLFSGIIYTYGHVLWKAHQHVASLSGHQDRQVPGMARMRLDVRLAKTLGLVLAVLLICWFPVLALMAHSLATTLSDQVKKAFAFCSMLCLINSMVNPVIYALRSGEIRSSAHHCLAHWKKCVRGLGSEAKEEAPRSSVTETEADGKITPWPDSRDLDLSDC
# experimental-protocol: Inhibition of beta-arrestin binding to recombinant cannabinoid CB2 receptor
Lab note: report pKi as minus log10 of the concentration in molar units, number only.

molecule	pKi
CCCC1(CNS(=O)(=O)C(F)(F)F)CCN(S(=O)(=O)c2cc3ccccc3n2S(=O)(=O)c2ccccc2F)CC1	8.74
CC(C)C1(CNS(=O)(=O)C(F)(F)F)CCCN(S(=O)(=O)c2cc3ccccc3n2S(=O)(=O)c2ccccc2F)C1 (stereo not drawn)	7.11
C[C@@H](NS(=O)(=O)C(F)(F)F)c1ccc(S(=O)(=O)n2cccc2S(=O)(=O)c2ccccc2F)cc1	8.08
CN(C)c1ncccc1S(=O)(=O)n1c(S(=O)(=O)N2CCC(CNS(=O)(=O)C(F)(F)F)CC2)cc2ccccc21	7.64
O=S(=O)(c1cc2ccccc2n1S(=O)(=O)c1cccnc1)N1CCC(CNS(=O)(=O)C(F)(F)F)CC1	7.39

pKi reading for O=S(=O)(c1cc2ccccc2n1S(=O)(=O)c1ccccc1F)N1CC(CCNS(=O)(=O)C(F)(F)F)C1 : 6.60

pKi reading for C[C@@H](NS(=O)(=O)C(F)(F)F)c1ccc(S(=O)(=O)c2ccoc2S(=O)(=O)c2ccccc2F)cc1 : 8.36

pKi reading for CCC1(CNS(=O)(=O)C(F)(F)F)CCN(S(=O)(=O)c2cc3cc(F)ccc3n2S(=O)(=O)c2ccccc2F)CC1 : 9.40

The values you see were collected from ChEMBL document CHEMBL1268834.
